# Experiment notes: xn = mol fraction of the nth substance listed
# Settings: 318.15 K, x1 = 0.45
Value kind: surface tension liquid-gas (mN/m)
The answer is to be given in mN/m; state only the numeric part.

Solved entries:
CCCCCCCC(=O)OCC [ethyl octanoate] + CCO ... 23.4
CCCCCC(=O)OCC [ethyl hexanoate] + CCO ... 22.5
CCOC(=O)c1ccccc1 [ethyl benzoate] + CCO ... 26.3
CCOC(=O)Cc1ccccc1 [ethyl phenylacetate] + CCO ... 26
CCCC(=O)OCCC(C)C [3-methylbutyl butanoate] + CCO ... 22

Now, please, on to the next compound.
What surface tension liquid-gas value was documented for this compound, CC(=O)OCCC(C)C [3-methylbutyl ethanoate] + CCO ?
21.3

----------
# Experiment notes: xn = mol fraction of the nth substance listed
# Settings: 318.15 K, x1 = 0.5
± gives the expanded uncertainty stated by the source.
Measured surface tension liquid-gas accompanies every entry in the list below.
Form entry: enter the amount, then its unit.

CCCCCC(=O)OCC [ethyl hexanoate] + CCO ... 22.6 ± 0.6 mN/m
CCCC(=O)OCCC(C)C [3-methylbutyl butanoate] + CCO ... 22.1 ± 0.6 mN/m
CC(=O)OCCC(C)C [3-methylbutyl ethanoate] + CCO ... 21.4 ± 0.4 mN/m
CCOC(=O)Cc1ccccc1 [ethyl phenylacetate] + CCO ... 26.6 ± 0.6 mN/m

What surface tension liquid-gas value was documented for this compound, CCCCCCCC(=O)OCC [ethyl octanoate] + CCO ?
23.5 ± 0.6 mN/m

What surface tension liquid-gas value was documented for this compound, CCOC(=O)c1ccccc1 [ethyl benzoate] + CCO ?
26.8 ± 0.6 mN/m

----------
# Experiment notes: refractive index (Na D-line) (dimensionless)
# Settings: 308.15 K; 101.33 kPa; Liquid; Standard Abbe refractometry
Value kind: refractive index
Could you keep your reply to the number by itself?

Solved entries:
CC(=O)OCCC(C)C [3-methylbutyl ethanoate] ... 1.39365
CCCCCCCC(=O)OCC [ethyl octanoate] ... 1.41137
CCOC(=O)c1ccccc1 [ethyl benzoate] ... 1.49863
CCCCCC(=O)OCC [ethyl hexanoate] ... 1.40055
CCOC(=O)Cc1ccccc1 [ethyl phenylacetate] ... 1.49063

What refractive index value was documented for this compound, CCO ?
1.35531

What refractive index value was documented for this compound, CCCC(=O)OCCC(C)C [3-methylbutyl butanoate] ?
1.40374

----------
# Experiment notes: xn = mol fraction of the nth substance listed
# Settings: 308.15 K, x1 = 0.4
Measured surface tension liquid-gas accompanies every entry in the list below.
The answer is to be given in mN/m; state only the numeric part.

CCCCCC(=O)OCC [ethyl hexanoate] + CCO ... 23.3
CCOC(=O)c1ccccc1 [ethyl benzoate] + CCO ... 26.7
CCOC(=O)Cc1ccccc1 [ethyl phenylacetate] + CCO ... 26.2
CC(=O)OCCC(C)C [3-methylbutyl ethanoate] + CCO ... 22.2
CCCC(=O)OCCC(C)C [3-methylbutyl butanoate] + CCO ... 22.8

Now, please, on to the next compound.
What surface tension liquid-gas value was documented for this compound, CCCCCCCC(=O)OCC [ethyl octanoate] + CCO ?
24.1

----------
Measured surface tension liquid-gas accompanies every entry in the list below.
# Experiment notes: xn = mol fraction of the nth substance listed
# Settings: 298.15 K, x1 = 0.25
The answer is to be given in mN/m; state only the numeric part.

Solved entries:
CCCC(=O)OCCC(C)C [3-methylbutyl butanoate] + CCO ... 23.3
CC(=O)OCCC(C)C [3-methylbutyl ethanoate] + CCO ... 22.9
CCOC(=O)c1ccccc1 [ethyl benzoate] + CCO ... 26
CCCCCCCC(=O)OCC [ethyl octanoate] + CCO ... 24.3
CCCCCC(=O)OCC [ethyl hexanoate] + CCO ... 23.7

Now, please, on to the next molecule.
What surface tension liquid-gas value was documented for this molecule, CCOC(=O)Cc1ccccc1 [ethyl phenylacetate] + CCO ?
25.5

----------
# Experiment notes: refractive index (Na D-line) (dimensionless); xn = mol fraction of the nth substance listed
# Settings: 308.15 K; 100.5 kPa; Liquid; Standard Abbe refractometry; x1 = 0.9
Value kind: refractive index
Could you keep your reply to the number by itself?

Solved entries:
CCOC(=O)Cc1ccccc1 [ethyl phenylacetate] + CCO ... 1.48539
CCCC(=O)OCCC(C)C [3-methylbutyl butanoate] + CCO ... 1.4021
CCCCCCCC(=O)OCC [ethyl octanoate] + CCO ... 1.40952
CCCCCC(=O)OCC [ethyl hexanoate] + CCO ... 1.39882
CCOC(=O)c1ccccc1 [ethyl benzoate] + CCO ... 1.49257

What refractive index value was documented for this molecule, CC(=O)OCCC(C)C [3-methylbutyl ethanoate] + CCO ?
1.39199

----------
# Experiment notes: xn = mol fraction of the nth substance listed
# Settings: 308.15 K, x1 = 0.2
Value kind: surface tension liquid-gas (mN/m)
The answer is to be given in mN/m; state only the numeric part.

CCCCCC(=O)OCC [ethyl hexanoate] + CCO ... 22.6
CCCCCCCC(=O)OCC [ethyl octanoate] + CCO ... 23.2
CC(=O)OCCC(C)C [3-methylbutyl ethanoate] + CCO ... 21.8

What surface tension liquid-gas value was documented for this compound, CCOC(=O)c1ccccc1 [ethyl benzoate] + CCO ?
24.4

What surface tension liquid-gas value was documented for this compound, CCCC(=O)OCCC(C)C [3-methylbutyl butanoate] + CCO ?
22.4

What surface tension liquid-gas value was documented for this compound, CCOC(=O)Cc1ccccc1 [ethyl phenylacetate] + CCO ?
23.9

----------
# Experiment notes: xn = mol fraction of the nth substance listed
# Settings: 318.15 K, x1 = 0.75
Value kind: surface tension liquid-gas (mN/m)
The answer is to be given in mN/m; state only the numeric part.

CCCCCC(=O)OCC [ethyl hexanoate] + CCO ... 23.1
CCOC(=O)Cc1ccccc1 [ethyl phenylacetate] + CCO ... 29.5
CCCC(=O)OCCC(C)C [3-methylbutyl butanoate] + CCO ... 22.6
CC(=O)OCCC(C)C [3-methylbutyl ethanoate] + CCO ... 21.9
CCOC(=O)c1ccccc1 [ethyl benzoate] + CCO ... 29.3

Now, please, on to the next compound.
What surface tension liquid-gas value was documented for this compound, CCCCCCCC(=O)OCC [ethyl octanoate] + CCO ?
24.2

----------
# Experiment notes: xn = mol fraction of the nth substance listed
# Settings: 318.15 K, x1 = 0.85
Measured surface tension liquid-gas accompanies every entry in the list below.
The answer is to be given in mN/m; state only the numeric part.

Solved entries:
CCOC(=O)c1ccccc1 [ethyl benzoate] + CCO ... 30.4
CCCCCCCC(=O)OCC [ethyl octanoate] + CCO ... 24.4
CCCC(=O)OCCC(C)C [3-methylbutyl butanoate] + CCO ... 22.8
CC(=O)OCCC(C)C [3-methylbutyl ethanoate] + CCO ... 22.1
CCOC(=O)Cc1ccccc1 [ethyl phenylacetate] + CCO ... 30.7

Now, please, on to the next molecule.
What surface tension liquid-gas value was documented for this molecule, CCCCCC(=O)OCC [ethyl hexanoate] + CCO ?
23.3

----------
Measured surface tension liquid-gas accompanies every entry in the list below.
# Experiment notes: xn = mol fraction of the nth substance listed
# Settings: 298.15 K, x1 = 0.05
The answer is to be given in mN/m; state only the numeric part.

CCCC(=O)OCCC(C)C [3-methylbutyl butanoate] + CCO ... 22.6
CCCCCC(=O)OCC [ethyl hexanoate] + CCO ... 22.7
CCOC(=O)Cc1ccccc1 [ethyl phenylacetate] + CCO ... 23.1
CCCCCCCC(=O)OCC [ethyl octanoate] + CCO ... 22.9
CC(=O)OCCC(C)C [3-methylbutyl ethanoate] + CCO ... 22.4

Now, please, on to the next compound.
What surface tension liquid-gas value was documented for this compound, CCOC(=O)c1ccccc1 [ethyl benzoate] + CCO ?
23.1

----------
Measured surface tension liquid-gas accompanies every entry in the list below.
# Experiment notes: xn = mol fraction of the nth substance listed
# Settings: 308.15 K, x1 = 0.85
The answer is to be given in mN/m; state only the numeric part.

Solved entries:
CCOC(=O)Cc1ccccc1 [ethyl phenylacetate] + CCO ... 31.6
CCCCCCCC(=O)OCC [ethyl octanoate] + CCO ... 25.2
CCCC(=O)OCCC(C)C [3-methylbutyl butanoate] + CCO ... 23.7
CC(=O)OCCC(C)C [3-methylbutyl ethanoate] + CCO ... 23.1
CCCCCC(=O)OCC [ethyl hexanoate] + CCO ... 24.2

Now, please, on to the next compound.
What surface tension liquid-gas value was documented for this compound, CCOC(=O)c1ccccc1 [ethyl benzoate] + CCO ?
31.2

----------
Measured refractive index accompanies every entry in the list below.
# Experiment notes: refractive index (Na D-line) (dimensionless); xn = mol fraction of the nth substance listed
# Settings: 308.15 K; 100.5 kPa; Liquid; Standard Abbe refractometry; x1 = 0.85
Could you keep your reply to the number by itself?

What refractive index value was documented for this compound, CCOC(=O)c1ccccc1 [ethyl benzoate] + CCO ?
1.48929

What refractive index value was documented for this compound, CCOC(=O)Cc1ccccc1 [ethyl phenylacetate] + CCO ?
1.48248

What refractive index value was documented for this compound, CCCC(=O)OCCC(C)C [3-methylbutyl butanoate] + CCO ?
1.40116

What refractive index value was documented for this compound, CCCCCCCC(=O)OCC [ethyl octanoate] + CCO ?
1.4085

What refractive index value was documented for this compound, CCCCCC(=O)OCC [ethyl hexanoate] + CCO ?
1.39787

What refractive index value was documented for this compound, CC(=O)OCCC(C)C [3-methylbutyl ethanoate] + CCO ?
1.39109
